tested on: HL-60; test: Cytotoxicity against human HL-60 cells assessed as reduction in cell viability by CellTiter Glo luminescent assay; type: functional, cell-based
pIC50: −log10 of the molar value.
yes (1) means recorded pIC50 is 6 or above; no (0) means it is below 6.

test_smiles=C=C(CC)C(=O)c1ccc(OCC(=O)N2CCN(S(=O)(=O)c3ccc([N+](=O)[O-])cc3)CC2)c(Cl)c1Cl qualitative_label="no (0)"
test_smiles=C=C(CC)C(=O)c1ccc(OCC(=O)N2CCN(S(=O)(=O)c3cccc4cccnc34)CC2)c(Cl)c1Cl qualitative_label="no (0)"
test_smiles=C=C(CC)C(=O)c1ccc(OCC(=O)NCCNS(=O)(=O)c2ccc(C)cc2)c(Cl)c1Cl qualitative_label="no (0)"
test_smiles=C=C(CC)C(=O)c1ccc(OCC(=O)NC2CCN(S(=O)(=O)c3ccc(OC)cc3)CC2)c(Cl)c1Cl qualitative_label="yes (1)"
test_smiles=C=C(CC)C(=O)c1ccc(OCC(=O)NCCNS(=O)(=O)c2ccc(OC)cc2OC)c(Cl)c1Cl qualitative_label="no (0)"
test_smiles=C=C(CC)C(=O)c1ccc(OCC(=O)N2CCN(S(=O)(=O)c3ccc(OC)cc3)CC2)c(Cl)c1Cl qualitative_label="yes (1)"
test_smiles=C=C(CC)C(=O)c1ccc(OCC(=O)NC2CCN(S(=O)(=O)C3CCCCC3)CC2)c(Cl)c1Cl qualitative_label="no (0)"
test_smiles=C=C(CC)C(=O)c1ccc(OCC(=O)NCCNS(=O)(=O)c2ccc([N+](=O)[O-])cc2)c(Cl)c1Cl qualitative_label="yes (1)"
test_smiles=C=C(CC)C(=O)c1ccc(OCC(=O)NC2CCN(S(C)(=O)=O)CC2)c(Cl)c1Cl qualitative_label="no (0)"
test_smiles=C=C(CC)C(=O)c1ccc(OCC(=O)NC2CCN(S(=O)(=O)c3ccc([N+](=O)[O-])cc3)CC2)c(Cl)c1Cl qualitative_label="no (0)"
test_smiles=C=C(CC)C(=O)c1ccc(OCC(=O)N2CCN(S(=O)(=O)C3CCCCC3)CC2)c(Cl)c1Cl qualitative_label="no (0)"
test_smiles=C=C(CC)C(=O)c1ccc(OCC(=O)N2CCN(S(C)(=O)=O)CC2)c(Cl)c1Cl qualitative_label="no (0)"

====

Each item that follows carries a reported selectivity ratio.
assay: Selectivity index, ratio of IC50 for human MRC5 cells to IC50 for human PC-3 cells by CellTiter Glo luminescent assay; assay type: toxicity; settings: MRC5 cells versus PC-3 cells, read-out: Ratio IC50
Property name: selectivity ratio

test_smiles=C=C(CC)C(=O)c1ccc(OCC(=O)N2CCN(S(=O)(=O)c3ccc(OC)cc3)CC2)c(Cl)c1Cl property_name="selectivity ratio" endpoint_result=4.03
test_smiles=C=C(CC)C(=O)c1ccc(OCC(=O)NC2CCN(S(=O)(=O)c3ccc(OC)cc3)CC2)c(Cl)c1Cl property_name="selectivity ratio" endpoint_result=38.6
test_smiles=C=C(CC)C(=O)c1ccc(OCC(=O)NC2CCN(S(=O)(=O)c3cc(Cl)ccc3OC)CC2)c(Cl)c1Cl property_name="selectivity ratio" endpoint_result=11.8

====

test system: HCT-116; assay: Cytotoxicity against human HCT-116 cells assessed as cell viability at 10 uM by CellTiter Glo luminescent assay relative to control; type: functional; conditions: read-out: Activity
Each item that follows carries a reported viability at 10 µM.
Property name: viability at 10 µM (%)

test_smiles=C=C(CC)C(=O)c1ccc(OCC(=O)NCCNS(=O)(=O)c2ccc(C)cc2)c(Cl)c1Cl test_target=HCT-116 endpoint_result=100
test_smiles=C=C(CC)C(=O)c1ccc(OCC(=O)NC2CCN(S(=O)(=O)c3ccc(OC)cc3OC)CC2)c(Cl)c1Cl test_target=HCT-116 endpoint_result=90
test_smiles=C=C(CC)C(=O)c1ccc(OCC(=O)N2CCN(S(=O)(=O)c3ccc(OC)c(OC)c3)CC2)c(Cl)c1Cl test_target=HCT-116 endpoint_result=89
test_smiles=C=C(CC)C(=O)c1ccc(OCC(=O)NC2CCN(S(=O)(=O)c3cccc4cccnc34)CC2)c(Cl)c1Cl test_target=HCT-116 endpoint_result=84
test_smiles=C=C(CC)C(=O)c1ccc(OCC(=O)NCCNS(=O)(=O)C2CCCCC2)c(Cl)c1Cl test_target=HCT-116 endpoint_result=91
test_smiles=C=C(CC)C(=O)c1ccc(OCC(=O)N2CCN(S(=O)(=O)c3cccc4cccnc34)CC2)c(Cl)c1Cl test_target=HCT-116 endpoint_result=100
test_smiles=C=C(CC)C(=O)c1ccc(OCC(=O)NC2CCN(S(=O)(=O)c3ccc(OC)cc3)CC2)c(Cl)c1Cl test_target=HCT-116 endpoint_result=45
test_smiles=C=C(CC)C(=O)c1ccc(OCC(=O)N2CCN(S(=O)(=O)c3cc(Cl)ccc3OC)CC2)c(Cl)c1Cl test_target=HCT-116 endpoint_result=75
test_smiles=C=C(CC)C(=O)c1ccc(OCC(=O)NC2CCN(S(=O)(=O)c3ccc(C)cc3)CC2)c(Cl)c1Cl test_target=HCT-116 endpoint_result=100
